# Experimental target: H1 receptor (Cavia porcellus)
# Construct: A piece of ileum, about 20 cm in length, is removed and cut into 2 cm pieces; from tissue; host or cells: ileum of male Hartley guinea pigs
# Assay comment: Histamine (H1) antagonism in guinea pig ileum
# Assay type: cell-based
# Condition summary: read-out: H1 Receptor Antagonism, pA2, in vitro (converted)
Assay endpoint: Kb (nM)

Compound	Measurement
COc1cc(C(=O)N2CCC(CCN3CCC(C(=O)c4nc5ccccc5n4Cc4ccc(F)cc4)CC3)(c3ccc(Cl)c(Cl)c3)C2)cc(OC)c1OC (single isomer, unassigned; (+)) [Example 14]	50.1
COc1cc(C(=O)N2CCC(CCN3CCC(C(=O)c4nc5ccccc5n4CCOCc4ccco4)CC3)(c3ccccc3)C2)cc(OC)c1OC (stereo not drawn)	35.5
COc1ccc(C2(CCN3CCC(O)(c4nc5ccccc5n4Cc4ccc(F)cc4)CC3)CCN(C(=O)c3cc(OC)c(OC)c(OC)c3)C2)cc1OC (stereo not drawn)	269

---

# Experimental target: NK1 receptor (Cavia porcellus, UniProt P30547)
# Construct: as evaluated in guinea pig lungs (Keystone Biologicals, Cleveland, Ohio); tissue Keystone Biologicals, Cleveland, Ohio; host or cells: guinea pig lung membranes
# Sequence (P30547 whole entry): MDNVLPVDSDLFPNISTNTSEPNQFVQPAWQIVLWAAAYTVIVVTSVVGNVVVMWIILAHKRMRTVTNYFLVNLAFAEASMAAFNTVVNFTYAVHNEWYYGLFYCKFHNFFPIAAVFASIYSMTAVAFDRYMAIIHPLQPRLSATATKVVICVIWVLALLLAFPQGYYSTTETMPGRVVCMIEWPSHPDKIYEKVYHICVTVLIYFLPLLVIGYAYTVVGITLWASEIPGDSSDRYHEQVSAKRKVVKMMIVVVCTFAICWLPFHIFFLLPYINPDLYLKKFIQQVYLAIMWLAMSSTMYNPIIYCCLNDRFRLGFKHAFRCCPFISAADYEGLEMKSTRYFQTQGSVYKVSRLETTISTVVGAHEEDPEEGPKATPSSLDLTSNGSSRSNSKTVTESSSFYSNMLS
# Assay comment: Antagonism of iodinated tachykinin (substance P) binding to NK1 receptors in guinea pig lungs
# Condition summary: read-out: NK1 Receptor Binding Affinity, IC50
Consider the cut-off 40 nM. If the recorded IC50 is strictly smaller, the label is 1; if not, the label is 0.

Molecule	Group
COc1cc(C(=O)N2CCC(CCN3CCC(C(=O)c4nc5ccccc5n4Cc4ccc(C(=O)O)cc4)CC3)(c3ccccc3)C2)cc(OC)c1OC (stereo not shown) [Example 39]	1
COc1cc(C(=O)N2CCC(CCN3CCC(C(=O)c4nc5ccccc5n4Cc4ccco4)CC3)(c3ccccc3)C2)cc(OC)c1OC (stereo not shown) [Example 44]	1
COc1cc(CN2CCC(CCN3CCC(O)(c4nc5ccccc5n4Cc4ccc(F)cc4)CC3)(Cc3ccccc3)C2=O)cc(OC)c1OC (stereo not shown) [Example 53]	0
CCOCCn1c(C2(O)CCN(CCC3(c4ccc(Cl)c(Cl)c4)CCN(C(=O)c4cc(OC)c(OC)c(OC)c4)C3)CC2)nc2ccccc21 (single isomer, unassigned; (+)) [Example 81]	1
COc1ccc(C(=O)N2CCC(CCN3CCC(C(=O)c4nc5ccccc5n4Cc4ccc(F)cc4)CC3)(c3ccc4c(c3)OCO4)C2)c(OC)c1OC (stereo not shown) [Example 27]	0
COc1cc(C(=O)N2CCC(CCN3CCC(C(=O)c4nc5ccccc5n4CCN4CCOCC4)CC3)(c3ccc(Cl)c(Cl)c3)C2)cc(OC)c1OC (stereo not shown) [Example 32]	1
COc1cc(C(=O)N2CCC(CCN3CCC(C(=O)c4nc5ccccc5n4Cc4ccccn4)CC3)(c3ccc(Cl)c(Cl)c3)C2)cc(OC)c1OC (stereo not shown) [Example 33]	1
COc1ccc(C2(CCN3CCC(O)(c4nc5ccccc5n4Cc4ccc(F)cc4)CC3)CCN(C(=O)c3ccccc3)C2)cc1OC (stereo not shown) [Example 3]	0
CC(C)Oc1cccc(CC(=O)N2CCC(CCN3CCC(C(=O)c4nc5ccccc5n4Cc4ccc(F)cc4)CC3)(c3ccc4c(c3)OCO4)C2)c1 (stereo not shown) [Example 26]	0
COc1cc(C(=O)N2CCC(CCN3CCC(C(=O)c4nc5ccccc5n4Cc4ccccn4)CC3)(c3ccccc3)C2)cc(OC)c1OC (stereo not shown) [Example 37]	1

---

# Experimental target: H1 receptor (Cavia porcellus, UniProt P31389)
# Construct: A piece of ileum, about 20 cm in length, is removed and cut into 2 cm pieces; from tissue; host or cells: ileum of male Hartley guinea pigs
# Sequence (P31389 whole entry): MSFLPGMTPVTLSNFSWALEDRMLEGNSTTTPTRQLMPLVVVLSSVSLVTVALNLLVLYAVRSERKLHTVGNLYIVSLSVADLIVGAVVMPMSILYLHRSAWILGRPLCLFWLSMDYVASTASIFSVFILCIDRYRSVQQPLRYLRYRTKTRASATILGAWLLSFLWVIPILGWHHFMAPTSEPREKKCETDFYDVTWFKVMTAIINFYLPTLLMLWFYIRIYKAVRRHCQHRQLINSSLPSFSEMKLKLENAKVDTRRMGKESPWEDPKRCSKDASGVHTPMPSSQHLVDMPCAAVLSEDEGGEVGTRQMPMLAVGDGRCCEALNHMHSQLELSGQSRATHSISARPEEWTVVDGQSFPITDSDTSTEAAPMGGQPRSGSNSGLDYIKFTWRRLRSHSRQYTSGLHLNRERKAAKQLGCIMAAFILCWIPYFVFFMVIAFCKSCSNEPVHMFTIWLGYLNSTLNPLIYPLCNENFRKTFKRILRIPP
# Assay comment: Histamine (H1) antagonism in guinea pig ileum
# Type: cell-based
# Condition summary: read-out: H1 Receptor Antagonism, pA2, in vitro (converted)
Assay endpoint: Kb (nM)

Compound	Experimental target	Quantity unit	Measurement
COc1ccc(C2(CCN3CCC(C(=O)c4nc5ccccc5n4Cc4ccc(F)cc4)CC3)CCN(C(=O)c3cc(OC)c(OC)c(OC)c3)C2)cc1OC (stereo not drawn)	H1 receptor (Cavia porcellus, UniProt P31389)	nM	31.6
COc1ccc(C2(CCN3CCC(c4nc5ccccc5s4)CC3)CCN(C(=O)c3ccccc3)C2)cc1OC (stereo not drawn)	H1 receptor (Cavia porcellus, UniProt P31389)	nM	158
COc1cc(C(=O)N2CCC(CCN3CCC(C(=O)c4nc5ccccc5n4Cc4ccccn4)CC3)(c3ccc(Cl)c(Cl)c3)C2)cc(OC)c1OC (stereo not drawn)	H1 receptor (Cavia porcellus, UniProt P31389)	nM	41.7
CC(C)Oc1cccc(CC(=O)N2CCCC(CCN3CCC(C(=O)c4nc5ccccc5n4Cc4ccc(F)cc4)CC3)(c3ccc(Cl)c(Cl)c3)C2)c1 (stereo not drawn)	H1 receptor (Cavia porcellus, UniProt P31389)	nM	79.4
COc1cc(C(=O)N2CCC(CCN3CCC(C(=O)c4nc5ccccc5n4CCN4CCOCC4)CC3)(c3ccc(Cl)c(Cl)c3)C2)cc(OC)c1OC (stereo not drawn)	H1 receptor (Cavia porcellus, UniProt P31389)	nM	513
COc1cc(C(=O)N2CCC(CCN3CCC(C(=O)c4nc5ccccc5n4Cc4ccc(F)cc4)CC3)(c3ccc4c(c3)OCO4)C2)cc(OC)c1OC (stereo not drawn)	H1 receptor (Cavia porcellus, UniProt P31389)	nM	60.3
COc1cc(C(=O)N2CCC(CCN3CCC(C(=O)c4nc5ccccc5n4Cc4ccc(F)cc4)CC3)(c3ccc(Cl)c(Cl)c3)C2)cc(OC)c1OC (stereo not drawn) [Example 6]	H1 receptor (Cavia porcellus, UniProt P31389)	nM	141
CCOCCn1c(C(=O)C2CCN(CCC3(c4ccccc4)CCN(C(=O)c4cc(OC)c(OC)c(OC)c4)C3)CC2)nc2ccccc21 (stereo not drawn)	H1 receptor (Cavia porcellus, UniProt P31389)	nM	41.7
COc1ccc(CC2(CCN3CCC(O)(c4nc5ccccc5n4Cc4ccc(F)cc4)CC3)CCN(Cc3cc(OC)c(OC)c(OC)c3)C2=O)cc1OC (stereo not drawn)	H1 receptor (Cavia porcellus, UniProt P31389)	nM	912
